TARGET_DESC: IL-17A(FLAG-Tagged): IL-17RA(His-Tagged) (Homo sapiens, UniProt Q16552, K93Q)
Sequence (Q16552 with tags, fused parts or gaps K93Q): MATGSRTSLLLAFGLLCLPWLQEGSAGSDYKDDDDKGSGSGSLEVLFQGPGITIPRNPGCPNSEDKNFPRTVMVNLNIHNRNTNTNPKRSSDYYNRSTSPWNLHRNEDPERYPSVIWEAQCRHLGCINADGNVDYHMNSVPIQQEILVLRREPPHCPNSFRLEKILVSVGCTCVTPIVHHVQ
PROTOCOL_TEXT: IL-17A(FLAG-Tagged): IL-17RA(His-Tagged) Binding Disruption Eu-HTRF Assay
EXPERIMENTAL_SETUP: IL-17A/IL-17RA binding disruption, simple average if tested more than once
pIC50: −log10 of the molar value.
Cut-off 7 on pIC50, inclusive. At or above means Fulfilled; below means Not fulfilled.

Consider the following illustrative entries.
O=C(CCC(F)(F)F)N[C@@H](c1cnn2cc([C@@H](NC(=O)c3ccnc4c3CCC4)C3CCC(F)(F)CC3)nc2c1)C1CC1 | Not fulfilled
N#Cc1ccncc1C(=O)N[C@H](c1cn2ncc([C@H](NC(=O)CCC(F)(F)F)C3CC3)cc2n1)C1CCC(F)(F)CC1 | Not fulfilled
O=C(CCC(F)(F)F)N[C@H](c1cnn2cc([C@H](NC(=O)c3conc3C3CCCC3)C3CCC(F)(F)CC3)nc2c1)C1CC1 (stereo in doubt) | Fulfilled

[in] Assess whether reported pIC50 for CC(C)n1nccc1C(=O)N[C@H](c1cn2ncc(C(NC(=O)CC3(C(F)(F)F)CC3)C3(C#N)CC3)cc2n1)C1CCC(F)(F)CC1 (single isomer, unassigned) [Example 434] sits at 7 or higher.
[out] Not fulfilled

[in] Assess whether reported pIC50 for "O=C(CCC(F)(F)F)N[C@@H](c1cnn2cc([C@@H](NC(=O)c3cnn(CCOC(F)F)c3)C3CCC(F)(F)CC3)nc2c1)C1CC1" sits at 7 or higher.
[out] Not fulfilled
